assayed.target: T1, soluble human FcRH5 protein fragment (human) (UniProt Q96RD9)
T1 sequence: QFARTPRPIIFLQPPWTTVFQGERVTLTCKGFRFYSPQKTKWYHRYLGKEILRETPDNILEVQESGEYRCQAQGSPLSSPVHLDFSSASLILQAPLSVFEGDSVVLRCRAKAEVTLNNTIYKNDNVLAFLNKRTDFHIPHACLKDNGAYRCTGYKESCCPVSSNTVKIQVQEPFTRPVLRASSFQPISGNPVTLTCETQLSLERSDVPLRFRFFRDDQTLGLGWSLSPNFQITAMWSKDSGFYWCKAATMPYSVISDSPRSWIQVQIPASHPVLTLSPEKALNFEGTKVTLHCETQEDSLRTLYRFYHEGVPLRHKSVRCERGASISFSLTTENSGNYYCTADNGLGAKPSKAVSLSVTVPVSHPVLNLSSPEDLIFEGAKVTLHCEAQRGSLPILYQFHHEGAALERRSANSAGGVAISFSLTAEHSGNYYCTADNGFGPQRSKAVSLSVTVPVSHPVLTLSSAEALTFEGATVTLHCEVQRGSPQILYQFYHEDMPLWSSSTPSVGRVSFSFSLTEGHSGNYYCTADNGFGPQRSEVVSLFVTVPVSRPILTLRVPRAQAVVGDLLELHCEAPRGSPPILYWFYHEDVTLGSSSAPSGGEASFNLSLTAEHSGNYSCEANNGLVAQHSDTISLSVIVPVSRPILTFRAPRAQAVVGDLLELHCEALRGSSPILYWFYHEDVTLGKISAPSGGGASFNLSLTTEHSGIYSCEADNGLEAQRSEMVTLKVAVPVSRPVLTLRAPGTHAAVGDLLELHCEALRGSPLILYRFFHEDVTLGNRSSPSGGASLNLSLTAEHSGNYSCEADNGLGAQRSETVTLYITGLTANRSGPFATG
method.description: SPR screening, human IgG capture
reported.property: pKd
Lab note — pKd values are minus log10 of concentrations in M.

Here are 5 binders together with their reported answers.
1) hu1G7.v1 heavy chain M64F + light chain of hu1G7.v1.6 (antibody, part only; not given: hu1G7.v1.6 light chain, V domains shown, part only) VH: EVQLVESGPGLVKPSETLSLTCTVSGFSLTRFGVHWVRQPPGKGLEWLGVIWRGGSTDYNAAFFSRLTISKDNSKNQVSLKLSSVTAADTAVYYCSNHYYGSSDYALDNWGQGTLVTVSS    8.59
2) hu1G7.v1 heavy chain M64V + light chain of hu1G7.v1.6 (antibody, part only; not given: hu1G7.v1.6 light chain, V domains shown, part only) VH: EVQLVESGPGLVKPSETLSLTCTVSGFSLTRFGVHWVRQPPGKGLEWLGVIWRGGSTDYNAAFVSRLTISKDNSKNQVSLKLSSVTAADTAVYYCSNHYYGSSDYALDNWGQGTLVTVSS    8.57
3) hu1G7.v1 heavy chain W52Y + light chain of hu1G7.v1.6 (antibody, part only; not given: hu1G7.v1.6 light chain, V domains shown, part only) VH: EVQLVESGPGLVKPSETLSLTCTVSGFSLTRFGVHWVRQPPGKGLEWLGVIYRGGSTDYNAAFMSRLTISKDNSKNQVSLKLSSVTAADTAVYYCSNHYYGSSDYALDNWGQGTLVTVSS    6.28
4) hu1G7.v1 heavy chain W52L + light chain of hu1G7.v1.6 (antibody, part only; not given: hu1G7.v1.6 light chain, V domains shown, part only) VH: EVQLVESGPGLVKPSETLSLTCTVSGFSLTRFGVHWVRQPPGKGLEWLGVILRGGSTDYNAAFMSRLTISKDNSKNQVSLKLSSVTAADTAVYYCSNHYYGSSDYALDNWGQGTLVTVSS    6.60
5) hu1G7.v1 heavy chain W52H + light chain of hu1G7.v1.6 (antibody, part only; not given: hu1G7.v1.6 light chain, V domains shown, part only) VH: EVQLVESGPGLVKPSETLSLTCTVSGFSLTRFGVHWVRQPPGKGLEWLGVIHRGGSTDYNAAFMSRLTISKDNSKNQVSLKLSSVTAADTAVYYCSNHYYGSSDYALDNWGQGTLVTVSS    6.96

Qu. Dear colleague, please send me the reported pKd for hu1G7.v1 heavy chain W52F + light chain of hu1G7.v1.6 (antibody, part only; not given: hu1G7.v1.6 light chain, V domains shown, part only) VH: EVQLVESGPGLVKPSETLSLTCTVSGFSLTRFGVHWVRQPPGKGLEWLGVIFRGGSTDYNAAFMSRLTISKDNSKNQVSLKLSSVTAADTAVYYCSNHYYGSSDYALDNWGQGTLVTVSS when you can.
Ans. 7.09

Qu. # return recorded pKd for input hu1G7.v1 heavy chain M64I + light chain of hu1G7.v1.6 (antibody, part only; not given: hu1G7.v1.6 light chain, V domains shown, part only) VH: EVQLVESGPGLVKPSETLSLTCTVSGFSLTRFGVHWVRQPPGKGLEWLGVIWRGGSTDYNAAFISRLTISKDNSKNQVSLKLSSVTAADTAVYYCSNHYYGSSDYALDNWGQGTLVTVSS
Ans. 8.57
